# assay_info: PK of 20 kDa PEGylated relaxin polypeptides after a single subcutaneous injection in SD rats (Example 40)
# Format: in vivo, Sprague-Dawley (SD) rats
# conditions: 0.5 mg/kg SC, male SD rats, 1 hr
Non-standard residues stand in square brackets, D forms with d. No end group written: not given here. Phe(4-Ac) = CC(=O)c1ccc(C[C@H](N)C(=O)O)cc1
reported_metric: Mean serum Conc. (ng/mL)
Give just the numeric value; ng/mL need not be written.

Sample records with Mean serum Conc.:
RLX-A-AR18-20KPEG-001: relaxin variant, B1 Ala, pAF at A chain position R18, 20K PEGylated (chain 1 QLYSALANKCCHVGCTKXSLARFC; chain 2 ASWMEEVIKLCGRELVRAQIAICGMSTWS; not fully specified; non-natural residues) : 33.9
RLX-A-BV7-20KPEG-001: relaxin variant, B1 Ala, pAF at B chain position V7, 20K PEGylated (chain 1 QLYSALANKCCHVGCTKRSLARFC; chain 2 ASWMEE[Phe(4-Ac)](PEG 20 kDa)IKLCGRELVRAQIAICGMSTWS; not fully specified (bridges); ends and bridges not checked) : 25.7

Quick note, Mean serum Conc. for RLX-A-BW28-20KPEG-001: relaxin variant, B1 Ala, pAF at B chain position W28, 20K PEGylated (chain 1 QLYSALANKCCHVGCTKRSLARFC; chain 2 ASWMEEVIKLCGRELVRAQIAICGMST[Phe(4-Ac)](PEG 20 kDa)S; not fully specified (bridges); ends and bridges not checked) landed at 36.4

Quick note, Mean serum Conc. for RLX-A-AA5-20KPEG-001: relaxin variant, B1 Ala, pAF at A chain position A5, 20K PEGylated (chain 1 QLYSXLANKCCHVGCTKRSLARFC; chain 2 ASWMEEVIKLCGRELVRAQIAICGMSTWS; not fully specified; non-natural residues) landed at 19.9

Quick note, Mean serum Conc. for RLX-A-AV13-20KPEG-001: relaxin variant, B1 Ala, pAF substituted for valine 13 in the A chain, 20K PEG attached (chain 1 QLYSALANKCCHXGCTKRSLARFC; chain 2 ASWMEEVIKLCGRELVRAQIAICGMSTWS; not fully specified; non-natural residues) landed at 44.9

====

# assay_info: PK of 20 kDa PEGylated relaxin polypeptides after a single subcutaneous injection in SD rats (Example 40)
# Format: in vivo, Sprague-Dawley (SD) rats
# conditions: 0.5 mg/kg SC, SD rats
Non-standard residues stand in square brackets, D forms with d. No end group written: not given here. Phe(4-Ac) = CC(=O)c1ccc(C[C@H](N)C(=O)O)cc1
The entries below come with measured AUCinf values attached.
Give just the numeric value; ng·h/mL need not be written.

Sample records with AUCinf:
RLX-A-AV13-20KPEG-001: relaxin variant, B1 Ala, pAF substituted for valine 13 in the A chain, 20K PEG attached (chain 1 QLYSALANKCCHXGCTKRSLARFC; chain 2 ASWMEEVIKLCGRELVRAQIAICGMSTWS; not fully specified; non-natural residues) : 32230.5
RLX-A-AA5-20KPEG-001: relaxin variant, B1 Ala, pAF at A chain position A5, 20K PEGylated (chain 1 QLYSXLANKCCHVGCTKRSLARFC; chain 2 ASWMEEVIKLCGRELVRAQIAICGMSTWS; not fully specified; non-natural residues) : 16095.9

Quick note, AUCinf for RLX-A-BV7-20KPEG-001: relaxin variant, B1 Ala, pAF at B chain position V7, 20K PEGylated (chain 1 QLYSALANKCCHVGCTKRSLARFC; chain 2 ASWMEE[Phe(4-Ac)](PEG 20 kDa)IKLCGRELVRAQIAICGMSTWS; not fully specified (bridges); ends and bridges not checked) landed at 17260.9
